# Test system: MDA-MB-231 breast
# EXPERIMENTAL_DETAILS: NCI-60 one-dose screen, 48 h (100 = growth as untreated, 0 = no growth, -100 = all killed)
# EXPERIMENTAL_SETUP: 10 µM unless noted
# Method: Cells are grown in 96 well plates and exposed to the test compound for 48 hours. Compounds are tested at a single concentration, which is 10^-5 M for most compounds. The reported endpoint is percent growth (GI% or GIPRCNT), where numbers from 0 - 100% represent growth inhibition, and numbers from -100% - 0 represent cell death. For example, a value of 40 represents 60% growth inhibition. A value of 0 means no net growth occurred over the course of the experiment. […]
The panel holds about 83,000 compounds, 20% with a hit somewhere; the sample as a whole holds those more often.
MEASURE_NAME: growth (%)
Enter your answer as a number in %; do not include the unit.

response.value for Cn1cc(-c2csc(-c3cn(CCO)c4ccc(F)cc34)n2)c2cccnc21 (field: growth) = 57.9

The measured growth associated with O=C(Nc1ncc(Cc2ccccc2Cl)s1)c1ccc2c(c1)OCCO2 reads 23.5

Reported growth ( CN1C(=O)N(C)C2C1NN=c1s/c(=C\c3ccc(F)cc3)c(=O)n12 (centres undefined) ) = 29.4

Lab note: Cn1ccnc1C(=O)/C=C/c1ccc(CC(=O)Nc2cc(F)c(F)c(F)c2)cc1 gave growth of 6.11

Measured growth, COc1ccc(C(=O)C2OC3=C(C(=O)CC(C)(C)C3)C2c2cccc(Oc3ccccc3)c2)cc1 (centres undefined) : 87.5

Entry O=C(/C=C/c1cccc([N+](=O)[O-])c1)c1ccc(Nc2nc(Nc3ccc(F)cc3)nc(Nc3ccc(Cl)cc3)n2)cc1 — recorded growth = 92.2

Consider COc1cc(C(=O)/C=C/c2c(-c3cccs3)nc3sc(C)cn23)cc(OC)c1OC . Its measured growth is 43.3

Query NS(=O)(=O)Oc1cccc(-c2nc3sccn3c2-c2ccccc2)c1 yields growth of 60.3

Looking up O=C1N/C(=N/N=C(c2ccccc2)c2ccccc2)S/C1=C\c1ccc(Br)cc1 , I found its growth recorded as 94.6

GET /value?item= N#C/C(=C/C=C/c1ccccc1)S(=O)c1ccccc1 (centres undefined) &field=growth returns -54.2

Item: Cc1ccc(Nc2oc(-c3ccccc3)nc2[P+](c2ccccc2)(c2ccccc2)c2ccccc2)cc1 | growth: -83.5

Just so you know, measured growth for C1=C2CCCC3=Cc4ccccc4OC23Oc2ccccc21 came out at 43.5

growth for CNc1nc2ncc(-c3c(C)noc3C)cc2n1Cc1ccccc1 is 50.3

GET /value?item= CNC(=O)c1cc(Oc2ccc3nc(NC(=O)c4cc(C(F)(F)F)cc(C(F)(F)F)c4)sc3c2)ccn1 &field=growth returns 8.74
